Target: T1, mature recombinant mouse GDF-15 with Flag and His tags (mouse, UniProt Q9Z0J7 189-303)
T1 construct: also called Flag tagged mouse GDF-15; not shown: FLAG and poly-His tags immediately C-terminal to the furin cleavage site (N-terminal on the mature protein)
T1 sequence: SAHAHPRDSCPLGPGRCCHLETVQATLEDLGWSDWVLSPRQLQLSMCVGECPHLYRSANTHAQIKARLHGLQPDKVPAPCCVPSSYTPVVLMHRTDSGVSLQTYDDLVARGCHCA
Assay: SPR Biacore 8K, 25 C, biotinylated GDF-15 on streptavidin C1 chip, Fab as analyte
koff reference
# unit: s⁻¹ | format: bare number

Reference set, count: 3
>  <binder>
AB1170245 Fab (Fab, V domains shown, Fab of the humanized antibody, expressed as in Spooner et al. 2015) VH: EVQLVESGGGLVKPGGSLRLSCAASGFTFSSYAMSWVRQAPGKGLEWVAYISSGGDYIYYADTVKGRFTISRDNSKNTLYLQMNSLKTEDTAVYYCTRALVDNAYFDYWGQGTTVTVSS VL: DIVLTQSPDSLAVSLGERATINCRASKSVSTSSYSYMHWYQQKPGQPPKLLIKYASYLEFGVPSRFSGSGSGTDFTLTISSLQPEDVATYYCQHSREFPWTFGGGTKVEIK

>  <measure>
koff

>  <unitsText>
s⁻¹

>  <valueReported>
1.5

$$$$
>  <binder>
AB1170243 Fab (Fab, V domains shown, Fab of the humanized antibody, expressed as in Spooner et al. 2015) VH: QVQLVQSGSELKKPGASVKVSCKASGYTFTDYNMDWIRQSPGKGLEWIGDINPNNGGTFYNQKFKDRATLTVDKSTSTAYMELRSLRSDDTAVYYCAREEKLYFGLMDYWGQGTTVTVSS VL: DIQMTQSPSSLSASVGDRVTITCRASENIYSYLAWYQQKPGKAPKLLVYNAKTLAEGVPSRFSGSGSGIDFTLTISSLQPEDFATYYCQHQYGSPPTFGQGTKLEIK

>  <measure>
koff

>  <unitsText>
s⁻¹

>  <valueReported>
0.281

$$$$
>  <binder>
AB1170242 Fab (Fab, V domains shown, Fab of the humanized antibody, expressed as in Spooner et al. 2015) VH: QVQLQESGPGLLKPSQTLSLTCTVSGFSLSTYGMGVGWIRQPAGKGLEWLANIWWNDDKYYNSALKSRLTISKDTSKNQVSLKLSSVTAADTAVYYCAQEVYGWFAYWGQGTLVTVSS VL: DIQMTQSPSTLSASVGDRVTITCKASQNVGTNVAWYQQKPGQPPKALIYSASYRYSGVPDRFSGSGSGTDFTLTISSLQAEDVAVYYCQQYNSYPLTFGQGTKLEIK

>  <measure>
koff

>  <unitsText>
s⁻¹

>  <valueReported>
0.826

$$$$

Which value of koff has been reported for AB1170249 Fab (Fab, V domains shown, Fab of the humanized antibody, expressed as in Spooner et al. 2015) VH: QVQLQESGPGLLKPSQTLSLTCTVSGFSLSTYGMGVGWIRQPLGKGLEWLANIWWNDDKYYNSALKSRLTISKDTSKNQVSLKLSSVTAADTAVYYCAQMAYSWFAYWGQGTLVTVSS VL: DIQMTQSPSFLSASVGDRVTITCKASQNMDTNVAWYQQKPGQPPKALIYSASYRYSGVPDRFSGSGSGTDFTLTISSLQAEDVAVYYCQQYNSYPFTFGQGTKLEIK in the records? 0.928

Would you kindly share the measured koff for AB1170244 Fab (Fab, V domains shown, Fab of the humanized antibody, expressed as in Spooner et al. 2015) VH: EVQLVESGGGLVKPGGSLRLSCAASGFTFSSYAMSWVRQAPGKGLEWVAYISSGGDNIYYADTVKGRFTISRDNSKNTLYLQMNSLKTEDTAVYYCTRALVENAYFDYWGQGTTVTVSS VL: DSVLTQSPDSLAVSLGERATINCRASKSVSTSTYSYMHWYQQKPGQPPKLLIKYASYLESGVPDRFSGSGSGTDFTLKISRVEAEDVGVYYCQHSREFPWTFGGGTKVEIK ? 0.54

Can you share its koff? I mean this binder: AB1520085 Fab (Fab, V domains shown, Fab of the anti-mouse GDF-15 mouse IgG1, expressed as in Spooner et al. 2015) VH: QVQLQQPGAELVMPGASVKMSCKASGYTFTDYWMHWVKQRPGQGLEWIGVIDTSESYTSYNQKFKGKATLTVDESSSTAYMQLSSLTSEDSAVYFCARGGTTVVLDYWGQGTTLTVSS VL: DIVMTQSQKFMSTSVGDRVSVTCKASQNVGTAVAWYQKKPGQSPKALIYSASTRYTGVPDRFTGSGSGTDFTLTISNVQSEDLAEYFCQQYSSSPWTFGGGTKLELK 0.000244

Look at this binder and give its reported koff. AB1170241 Fab (Fab, V domains shown, Fab of the humanized antibody, expressed as in Spooner et al. 2015) VH: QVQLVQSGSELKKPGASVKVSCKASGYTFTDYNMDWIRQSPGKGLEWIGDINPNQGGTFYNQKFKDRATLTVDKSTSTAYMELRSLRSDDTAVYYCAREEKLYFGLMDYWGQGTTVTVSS VL: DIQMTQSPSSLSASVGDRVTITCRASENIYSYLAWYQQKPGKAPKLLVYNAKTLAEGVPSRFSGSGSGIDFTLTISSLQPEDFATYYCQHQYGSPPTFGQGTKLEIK 0.329

From: patent US20220281965A1
